Target: Amine oxidase [flavin-containing] B (Homo sapiens, UniProt P27338)
Sequence (P27338 whole entry): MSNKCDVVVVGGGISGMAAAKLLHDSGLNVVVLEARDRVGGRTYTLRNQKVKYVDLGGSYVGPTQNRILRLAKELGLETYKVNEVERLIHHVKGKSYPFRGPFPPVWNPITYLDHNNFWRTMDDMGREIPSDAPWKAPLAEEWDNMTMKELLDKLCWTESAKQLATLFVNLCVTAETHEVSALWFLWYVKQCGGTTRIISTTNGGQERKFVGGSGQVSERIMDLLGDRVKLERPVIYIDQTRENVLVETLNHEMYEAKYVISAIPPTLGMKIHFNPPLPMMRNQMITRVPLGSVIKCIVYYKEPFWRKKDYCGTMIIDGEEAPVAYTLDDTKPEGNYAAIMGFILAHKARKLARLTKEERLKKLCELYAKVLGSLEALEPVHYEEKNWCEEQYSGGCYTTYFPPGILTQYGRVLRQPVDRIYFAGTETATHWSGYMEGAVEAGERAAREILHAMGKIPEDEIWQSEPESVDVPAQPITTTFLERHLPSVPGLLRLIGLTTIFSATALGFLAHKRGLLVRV
IC50: recorded values
Give the value, in units of µM, as a plain number.

Worked examples, 8 compounds total:
CCCN(CCC)CCCCCCOc1ccc(/C=C/c2cc(OC)cc(OC)c2)cc1 = 92.4
COc1cc(/C=C/c2ccc(OCCCCCCN(C)Cc3ccccc3)cc2)cc(OC)c1 = 40.3
CCN(CCCCCCOc1ccc(/C=C/c2cc(OC)cc(OC)c2)cc1)Cc1cccc(F)c1 = 97.5
COc1cc(/C=C/c2ccc(OCCN(C)Cc3ccccc3)cc2)cc(OC)c1 = 89
CCN(CCCCCCOc1ccc(/C=C/c2cc(OC)cc(OC)c2)cc1)Cc1ccccc1 = 58.3
COc1cc(/C=C/c2ccc(OCCCCCN(C)Cc3ccccc3)cc2)cc(OC)c1 = 16.2
COc1cc(/C=C/c2ccc(OCCCCCCN3CCCC3)cc2)cc(OC)c1 = 12.2
COc1cc(/C=C/c2ccc(OCCCCCCN3CCCCC3)cc2)cc(OC)c1 = 14.2

Shifting focus to the compound that follows.
INPUT: GET /values?readout=IC50&item= COc1cc(/C=C/c2ccc(OCCCCCCN(C)C)cc2)cc(OC)c1
OUTPUT: 7.52
